- Read-out: C-C motif chemokine 2 (Homo sapiens) (UniProt P13500)
- methodNotes: BSK_KF3CT_MCP1: BioMAP Diversity Plus: KF3CT Assay for Monocyte Chemoattractant Protein 1 (MCP1/CCL2) Biomarker Activity (AID 2283073)
- studyConditions: primary human keratinocytes with fibroblasts; actives raise or lower the signal
Activity calls are given as the source filed them. How the source made its calls: active means hit-call score of the fitted dose curve at least 0.9, where 1 is the maximum; inactive means score below 0.9.
Can you answer with just one of these options? 1 = active, 0 = inactive

Before answering, review these 8 worked examples.
>>> group("CN(C)c1ccc(N=NS(=O)(=O)O)cc1")
0
>>> group("O=C(O)c1cccc(Oc2ccccc2)c1")
0
>>> group("O=C(O)CC(O)C(=O)O (centres undefined)")
0
>>> group("CC[C@H]1CC[C@H](NCc2cc3c(cc2OC)[C@H]2C[C@H]2C(=O)N3C)[C@H](c2ccccc2)N1")
0
>>> group("CC(C)CCCCCCOC(=O)c1ccc(C(=O)OCCCCCCC(C)C)c(C(=O)OCCCCCCC(C)C)c1")
0
>>> group("O=C(NS(=O)(=O)/C=C/c1ccccc1)c1ccc(F)cc1Cl")
0
>>> group("O=C1CCCCCN1")
0
>>> group("CC(C)CCCCCCCOC(=O)CCCCC(=O)OCCCCCCCC(C)C")
0

(Q) Assay result, entry CCCCCCc1ccc(O)cc1O — outcome?
(A) 1

(Q) I would be grateful if you could indicate the recorded call for C1=CCCC=CCCC=CCC1 .
(A) 0

(Q) Dear colleague, could you share the recorded outcome for CC[C@H](C)C(=O)O[C@H]1C[C@@H](C)C=C2C=C[C@H](C)[C@H](CC[C@@H]3C[C@@H](O)CC(=O)O3)[C@H]21 when you have a moment?
(A) 1

(Q) Just curious, what result did Cc1c(-c2cccnc2)c2ccccc2n1CCCCC(=O)O get here?
(A) 0

(Q) Dear colleague, could you share the recorded outcome for COc1ccc(-n2nc(C(F)F)cc2-c2ccc(S(C)=O)cc2)cc1 (centres undefined) when you have a moment?
(A) 0

(Q) For COC(=O)CC(=O)OC , which call appears in the assay record?
(A) 0

* * *

- Read-out: Interleukin-8 (IL8), CXCL8 (gene 3576)
- methodNotes: BSK_SAg_IL8: BioMAP Diversity Plus: SAg Assay for Interleukin-8 (IL8) Biomarker Activity (AID 2283094)
- studyConditions: primary human HUVEC with PBMC; actives raise or lower the signal
Calls of active or inactive are those of the source. Rule for the calls: active = hit-call score of the fitted dose curve at least 0.9, where 1 is the maximum; inactive = score below 0.9.
assayReadout: AC50

For orientation, consider the following solved cases.
>>> recordedvalue("CC(C)=CCCC(C)CCO (configuration not stated)")
"inactive"
>>> recordedvalue("CCCC(=O)OCC")
"inactive"
>>> recordedvalue("O=C1CCCCCN1")
"inactive"
>>> recordedvalue("Cc1ccc(C)c(O)c1")
"inactive"
>>> recordedvalue("CCOC(=O)COc1ccc2c(c1)CC(NCC(O)c1cccc(Cl)c1)CC2 (configuration not stated)")
"18.3 µM (active)"
>>> recordedvalue("Nc1nc2ncc(CNc3ccc(C(=O)N[C@@H](CCC(=O)O)C(=O)O)cc3)nc2c(=O)[nH]1")
"inactive"
>>> recordedvalue("CCCN(C1CCN(C(=O)C2CCNCC2)CC1)[C@@H]1CCc2ccc(OC)cc2C1")
"inactive"
>>> recordedvalue("CC(C)(O)c1coc(S(=O)(=O)NC(=O)Nc2c3c(cc4c2CCC4)CCC3)c1")
"inactive"
>>> recordedvalue("O=C(O)CCN(C1(C(=O)NO)CCCC1)S(=O)(=O)c1ccc(Oc2ccc(F)cc2)cc1")
"inactive"
>>> recordedvalue("Nc1ccc(Nc2ccccc2)cc1")
"8.78 µM (active)"

Batch request: AC50 for each of the following molecules.
1. COC(=O)c1c(Cl)c(Cl)c(C(=O)OC)c(Cl)c1Cl
2. CC(O)CN(CCN(CC(C)O)CC(C)O)CC(C)O (configuration not stated)

(A)
1. inactive
2. inactive
